- study system: S1P1 (Homo sapiens)
- assay: S1P1 internalization assay in S1P1-U2OS cells (S1P1-EGFP), cell imaging
- Format: cell-based
- Design: host or cells: U2OS (human bone osteosarcoma epithelial cells), CMV promoter, geneticin selection
- measurement setup: 1 hour incubation
- Sequence (P21453 whole entry): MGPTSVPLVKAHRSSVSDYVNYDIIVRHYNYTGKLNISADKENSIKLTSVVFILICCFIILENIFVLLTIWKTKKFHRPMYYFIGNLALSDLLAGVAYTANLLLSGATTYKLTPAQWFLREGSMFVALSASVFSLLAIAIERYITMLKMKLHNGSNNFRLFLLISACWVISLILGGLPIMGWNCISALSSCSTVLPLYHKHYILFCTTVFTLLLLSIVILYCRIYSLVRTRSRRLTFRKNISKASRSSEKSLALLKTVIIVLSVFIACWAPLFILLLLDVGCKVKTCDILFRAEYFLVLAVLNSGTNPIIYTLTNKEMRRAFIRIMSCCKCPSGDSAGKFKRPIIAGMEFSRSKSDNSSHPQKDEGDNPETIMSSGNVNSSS
Counter-ions that a name gives are not always drawn.
experimental endpoint: EC50

A selection of reference data follows.
COCc1cc(-c2nc(-c3ccc(CN(C)CC(=O)O)cc3)no2)ccc1-c1cccc(F)c1C [Example 90, hydrochloride salt]; 4.46 nM
COCc1cc(-c2nc(-c3ccc(CN(C)CC(=O)O)c(F)c3)no2)ccc1-c1ccccc1C [Example 52, hydrochloride salt]; 2.52 nM
COCc1cc(-c2nc(-c3cc(F)c(CNCC(=O)O)c(F)c3)no2)ccc1-c1ccccc1C [Example 147, hydrochloride salt]; 1.54 nM
COCc1cc(-c2nc(-c3ccc(CN(C)CC(=O)O)c(F)c3)no2)ccc1-c1ccccc1F [Example 55, hydrochloride salt]; 8.46 nM
COCc1cc(-c2nc(-c3ccc(CN(C)CC(=O)O)c(F)c3F)no2)ccc1-c1ccccc1C [Example 149, hydrochloride salt]; 9.54 nM

For the next question, use this molecule.
Lookup: Supply recorded EC50 for C[C@@H]1CCCCN1c1ccc(-c2nc(-c3cccc(CN(C)CC(=O)O)c3)no2)cc1C(F)(F)F [Example 45, hydrochloride salt] here.
Found: 12.1 nM

====

- study system: UniProt P21453
- assay: Receptor binding assay, [33P]sphingosine 1-phosphate competition, S1P1 membranes, WGA SPA beads
- measurement setup: 384 well-plate; read-out: S1P1 binding Ki (M) (384 well-plate)
- Sequence (P21453 whole entry, species assumed): as the sequence (P21453 whole entry) above
Counter-ions that a name gives are not always drawn.
experimental endpoint: Ki (M)
# output: bare number, implied unit M

Example cases with answers are listed next.
Cc1ccccc1-c1ccc(-c2nc(-c3ccc(CN(C)CC(=O)O)c(F)c3)no2)cc1C [Example 131, hydrochloride salt]; 1.68e-09
Cc1cc(-c2nc(-c3ccc(CN(C)CC(=O)O)cc3)no2)ccc1-c1ccccc1C(F)F [Example 137, hydrochloride salt]; 2.37e-09
CC1CCCCN1c1ccc(-c2nc(-c3ccc(CN(C)CC(=O)O)c(F)c3)no2)cc1C(F)(F)F (stereo not shown) [Example 85, dihydrochloride salt]; 9.74e-10

Lookup: State Ki (UniProt P21453) of COCc1cc(-c2nc(-c3ccc(CN(C)CC(=O)O)c(F)c3F)no2)ccc1-c1ccccc1C [Example 149, hydrochloride salt] .
Found: 1.26e-09

Lookup: Answer with Ki of COCc1cc(-c2nc(-c3cccc(CN(CC(=O)O)CC(C)C)c3)no2)ccc1-c1ccccc1C [Example 59, hydrochloride salt] measured for UniProt P21453.
Found: 7.94e-09

Lookup: Give the observed Ki of COCc1cc(-c2nc(-c3ccc(CN(C)CC(=O)O)cc3C(F)(F)F)no2)ccc1-c1ccccc1C [Example 143] for UniProt P21453.
Found: 2.32e-09

Lookup: // fetch Ki for COCc1cc(-c2nc(-c3ccc(CN(C)CC(=O)O)cc3C)no2)ccc1-c1ccccc1C [Example 102] ; system: UniProt P21453
Found: 1.44e-09

Lookup: Jot down Ki (UniProt P21453) of COCc1cc(-c2nc(-c3ccc(CN(C)CC(=O)O)cc3)no2)ccc1-c1ccccc1F [Example 54, hydrochloride salt] .
Found: 9.76e-10

Lookup: With UniProt P21453 as the test system, provide measured Ki for this molecule: COCc1cc(-c2nc(-c3cccc(CC(=O)NCCN(C)C)c3)no2)ccc1-c1ccccc1C [Example 41]
Found: 8.34e-09

Lookup: GET Ki | system: UniProt P21453 | item: COCc1cc(-c2nc(-c3cccc(CC(=O)N(C)CC(=O)O)c3)no2)ccc1-c1ccccc1C [Example 44]
Found: 1.02e-08

Lookup: Give Ki for COc1cc(-c2noc(-c3ccc(N4CCCCC4C)c(C(F)(F)F)c3)n2)ccc1CN(C)CC(=O)O (stereo not shown) [Example 80, hydrochloride salt] tested on UniProt P21453.
Found: 3.12e-09

Lookup: Give Ki only, for Cc1ccccc1-c1ccc(-c2nc(-c3cc(F)cc(CN(C)CC(=O)O)c3)no2)cc1C [Example 133, hydrochloride salt] , using UniProt P21453 data.
Found: 2.81e-09

Lookup: State the measured Ki (UniProt P21453) of COCc1cc(-c2nc(-c3ccc(CN(C)CC(=O)O)cc3Cl)no2)ccc1-c1ccccc1C [Example 144]
Found: 1.73e-09
